All values here come from paper PMC5318888.

- System: HIV-1-GFP
- Experiment: microbe, parasite or virus in culture
- Format: cell-based
- Test Conditions: THP-1 PMA−
Assay Readout: SI, selectivity index CC50/EC50

Reference set (4 entries):
Compound	SI, selectivity index CC50/EC50
Nc1nc(NC2CC2)c2ncn([C@H]3C=C[C@@H](CO)C3)c2n1 [ABC]	> 406
Cc1cn([C@H]2C=C[C@@H](CO)O2)c(=O)[nH]c1=O [d4T, 2′,3′-didehydro-2′,3′-dideoxythymidine]	> 32
Cc1nnc(C(=O)NC(C)(C)c2nc(C(=O)NCc3ccc(F)cc3)c(O)c(=O)n2C)o1 [RAL, Raltegravir]	> 4545
Nc1nc(Cl)nc2c1ncn2[C@@H]1O[C@H](CO)[C@@H](O)[C@@H]1F [CFB]	< 1

Look up and state reported SI, selectivity index CC50/EC50 for Cc1ccnc2c1NC(=O)c1cccnc1N2C1CC1 [NVP, Nevirapine]
> 542
